Assay: HepG2 cell viability effects, profiling panel, calcein-AM fluorescence, 48 h, basal (AID 1164); further: test concentration not given here
Settings: higher = more signal
Record form. Attribute: z-score. Fill in for each entry.
One number for each entry.

Exercise: Respond only with z-score recorded for CCOc1cc(C(O)C2C=CC3C(=O)N(c4ccccc4)C(=O)C3N2Nc2ccc(C#N)cc2)ccc1O (configuration not stated)
Key: 0.264

For every record below, what is its z-score?
1. C=C(/C(=C/C[C@H](OC(C)=O)c1ccccc1OCCO)c1cc(C(=O)OC)ccc1OC)C(C)C
2. O=C1NC(=O)C2C1C=CC(C(O)c1cccc3ccccc13)N2Nc1ccc(Cl)cc1Cl (configuration not stated)
3. COCCOC(=O)N1C(=O)[C@@]2(c3cc(C#CCC(C(=O)OC)C(=O)OC)ccc31)[C@H](C(=O)N1CCc3cc(OC)c(OC)cc3C1)[C@H]1C(=O)O[C@H](c3ccccc3)[C@H](c3ccccc3)N1[C@@H]2c1ccc(OCCO)cc1

Key:
-0.644
-2.76
1.42

For every record below, what is its z-score?
1. O=C1C2C=CC(C(O)c3ccccc3)N(Nc3ccccc3F)C2C(=O)N1c1ccccc1 (configuration not stated)
2. C=CC[C@]1(C(=O)O)COC(c2ccc(OCCCO)cc2)=N1
3. C=CCOC(=O)[C@H]1[C@@H]2C(=O)O[C@@H](c3ccccc3)[C@@H](c3ccccc3)N2[C@@H](c2ccc(OCCOC(=O)[C@@H]3C[C@@H]4C(=O)N5CCC[C@H]5C(=O)N4[C@@H]3c3ccc(O)cc3)cc2)[C@]12C(=O)Nc1ccc(I)cc12

Key:
1: 0.925; 2: -0.148; 3: 0.018

* * *

Target: Concanavalin-A (Canavalia ensiformis)
Assay: ConA small-molecule binders, primary screen, artefact control for SMM control protein annotation, biochemical, small-molecule microarray, Alexa647 label, 635 nm (AID 1127);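 further: z combines 667 nm emission intensity with signal-to-noise across three replicate slides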
Settings: ConA-A647 binding fluorescence, higher = more signal
Everything with composite z-score lower than 0.6 is Not satisfied; everything else, including exactly 0.6, is Satisfied.

Exercise: Would you say `[N-]=[N+]=NCc1ccccc1C[C@@]1(C(=O)N2CCCCC2)N=C(c2ccc(OCCCO)cc2)O[C@@H]1c1ccccc1` shows composite z-score at minimum 0.6?
Key: Satisfied

Exercise: Would you say CCCCC(O)C1C=CC2C(=O)N(c3ccccc3)C(=O)C2N1Nc1ccc(C(C)C)cc1 (stereo not drawn) shows composite z-score at minimum 0.6?
Key: Satisfied

Exercise: Would you say `COCCCNC(=O)[C@@]1(Sc2ccc(C)cc2)CC(=O)N(C2CCCCC2)[C@@H]1c1ccc(CO)cc1` shows composite z-score at minimum 0.6?
Key: Not satisfied

Exercise: Would you say `C=C(/C(=C/C[C@@H](OC(C)=O)c1cccc(OCCO)c1)c1cc(C(=O)OC)ccc1OC)C(C)C` shows composite z-score at minimum 0.6?
Key: Not satisfied

Exercise: Would you say `COCCCNC(=O)[C@@]1(Cc2ccccc2CN=[N+]=[N-])N=C(c2ccc(OCCCO)cc2)O[C@H]1c1ccccc1` shows composite z-score at minimum 0.6?
Key: Satisfied

Continuing:
Exercise: Would you say `O=C(CS)NCCCCCNC(=O)[C@@H]1C[C@@H]2C(=O)N3CCC[C@H]3C(=O)N2[C@@H]1c1cccc(OCCO)c1` shows composite z-score at minimum 0.6?
Key: Satisfied

Exercise: Would you say O=C1NC(=O)C2C1C=CC(C(O)CCc1ccccc1)N2Nc1ccc(Cl)cc1Cl (stereo not drawn) shows composite z-score at minimum 0.6?
Key: Not satisfied

Exercise: Would you say C=CCC(OC(C)=O)[C@@H]1[C@@H](N(Cc2cccc3ccccc23)C(=O)c2cccc3ccccc23)c2cc(OCCCO)ccc2N1C(=O)c1ccc(-c2ccccc2)cc1 (stereo partly drawn) shows composite z-score at minimum 0.6?
Key: Not satisfied
